# system: ATM (Homo sapiens, UniProt Q13315)
# Construct: detecting phosphorylation of Chk2 in a human non-small cell lung cancer cell line NCI-H460 (ATCC company); host or cells: NCI-H460 human non-small cell lung cancer cells
# Sequence (Q13315 whole entry): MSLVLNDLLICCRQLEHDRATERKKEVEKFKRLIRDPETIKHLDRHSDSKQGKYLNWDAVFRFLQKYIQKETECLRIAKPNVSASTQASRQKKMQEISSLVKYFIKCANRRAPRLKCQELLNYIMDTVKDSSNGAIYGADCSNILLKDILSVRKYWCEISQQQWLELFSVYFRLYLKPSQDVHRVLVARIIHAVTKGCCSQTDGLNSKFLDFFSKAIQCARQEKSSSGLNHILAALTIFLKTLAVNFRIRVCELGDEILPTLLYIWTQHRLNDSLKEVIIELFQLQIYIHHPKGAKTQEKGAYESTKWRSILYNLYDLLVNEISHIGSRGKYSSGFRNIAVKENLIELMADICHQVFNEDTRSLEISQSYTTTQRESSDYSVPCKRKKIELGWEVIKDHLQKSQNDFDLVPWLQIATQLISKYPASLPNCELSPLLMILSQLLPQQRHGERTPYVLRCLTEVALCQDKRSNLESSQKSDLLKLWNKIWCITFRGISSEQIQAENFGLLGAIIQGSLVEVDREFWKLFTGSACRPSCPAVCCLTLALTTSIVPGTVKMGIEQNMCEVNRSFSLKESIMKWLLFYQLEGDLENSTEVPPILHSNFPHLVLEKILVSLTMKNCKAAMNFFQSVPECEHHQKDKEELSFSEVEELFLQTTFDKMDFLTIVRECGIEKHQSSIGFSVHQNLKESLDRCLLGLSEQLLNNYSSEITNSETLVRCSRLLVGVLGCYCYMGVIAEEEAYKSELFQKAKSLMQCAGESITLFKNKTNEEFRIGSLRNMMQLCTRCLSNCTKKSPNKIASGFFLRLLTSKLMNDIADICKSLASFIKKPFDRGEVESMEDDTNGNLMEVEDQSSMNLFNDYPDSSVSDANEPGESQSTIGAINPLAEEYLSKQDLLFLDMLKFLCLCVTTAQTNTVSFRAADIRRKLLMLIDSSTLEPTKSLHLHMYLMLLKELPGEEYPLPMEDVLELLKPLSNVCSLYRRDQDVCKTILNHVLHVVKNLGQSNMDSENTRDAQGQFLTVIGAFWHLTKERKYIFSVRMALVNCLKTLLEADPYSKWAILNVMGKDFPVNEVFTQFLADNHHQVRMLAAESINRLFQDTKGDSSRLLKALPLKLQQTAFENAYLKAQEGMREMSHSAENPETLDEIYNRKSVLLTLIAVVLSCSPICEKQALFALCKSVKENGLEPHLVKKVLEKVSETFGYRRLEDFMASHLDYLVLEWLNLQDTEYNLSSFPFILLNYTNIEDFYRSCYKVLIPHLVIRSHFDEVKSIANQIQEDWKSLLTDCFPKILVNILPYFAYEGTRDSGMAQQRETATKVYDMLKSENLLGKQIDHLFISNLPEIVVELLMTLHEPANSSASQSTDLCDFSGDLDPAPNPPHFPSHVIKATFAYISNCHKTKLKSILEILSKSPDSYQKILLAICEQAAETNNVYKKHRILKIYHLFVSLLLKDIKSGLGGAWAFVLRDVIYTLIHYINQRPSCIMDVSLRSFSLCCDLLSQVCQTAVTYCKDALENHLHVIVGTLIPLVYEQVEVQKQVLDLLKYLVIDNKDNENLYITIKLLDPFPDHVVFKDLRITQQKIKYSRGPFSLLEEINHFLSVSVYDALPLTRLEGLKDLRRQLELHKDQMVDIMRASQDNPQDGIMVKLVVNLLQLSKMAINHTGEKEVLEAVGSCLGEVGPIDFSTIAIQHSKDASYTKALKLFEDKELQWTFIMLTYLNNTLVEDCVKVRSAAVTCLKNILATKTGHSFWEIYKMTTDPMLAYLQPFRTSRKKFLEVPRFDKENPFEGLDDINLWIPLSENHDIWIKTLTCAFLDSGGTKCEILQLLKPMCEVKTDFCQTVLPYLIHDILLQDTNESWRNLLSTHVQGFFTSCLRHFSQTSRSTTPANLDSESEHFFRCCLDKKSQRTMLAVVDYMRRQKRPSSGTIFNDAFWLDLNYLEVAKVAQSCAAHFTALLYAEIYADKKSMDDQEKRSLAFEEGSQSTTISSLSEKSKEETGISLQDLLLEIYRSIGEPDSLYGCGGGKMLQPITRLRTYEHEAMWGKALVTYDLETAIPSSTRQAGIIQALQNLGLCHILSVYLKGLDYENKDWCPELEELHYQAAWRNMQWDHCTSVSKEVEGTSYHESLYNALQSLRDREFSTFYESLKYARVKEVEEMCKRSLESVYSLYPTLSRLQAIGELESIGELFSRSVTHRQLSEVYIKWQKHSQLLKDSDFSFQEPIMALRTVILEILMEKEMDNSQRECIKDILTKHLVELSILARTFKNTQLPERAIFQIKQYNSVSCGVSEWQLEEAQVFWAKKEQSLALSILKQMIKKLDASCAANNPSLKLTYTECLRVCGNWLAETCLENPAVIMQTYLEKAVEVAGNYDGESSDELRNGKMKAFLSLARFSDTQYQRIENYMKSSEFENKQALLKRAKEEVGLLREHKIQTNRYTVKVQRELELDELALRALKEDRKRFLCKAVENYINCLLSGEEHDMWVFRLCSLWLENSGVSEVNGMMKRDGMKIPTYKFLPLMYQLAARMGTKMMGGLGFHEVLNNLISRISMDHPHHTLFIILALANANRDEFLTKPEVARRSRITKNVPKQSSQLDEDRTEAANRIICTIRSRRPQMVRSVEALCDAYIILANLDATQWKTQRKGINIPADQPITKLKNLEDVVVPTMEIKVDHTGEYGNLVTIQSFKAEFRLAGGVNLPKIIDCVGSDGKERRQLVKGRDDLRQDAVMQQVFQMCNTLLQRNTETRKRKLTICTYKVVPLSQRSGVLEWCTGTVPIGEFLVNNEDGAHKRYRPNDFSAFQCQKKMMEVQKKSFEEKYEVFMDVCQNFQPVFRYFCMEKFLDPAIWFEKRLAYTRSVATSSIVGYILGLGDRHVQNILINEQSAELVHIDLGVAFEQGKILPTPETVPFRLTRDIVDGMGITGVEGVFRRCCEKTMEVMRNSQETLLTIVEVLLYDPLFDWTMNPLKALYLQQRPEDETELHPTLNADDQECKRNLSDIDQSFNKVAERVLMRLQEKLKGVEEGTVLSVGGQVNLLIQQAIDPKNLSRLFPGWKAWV
# assay_summary: ATM inhibition test (phosphorylation of Chk2 generated by ionizing radiation, AlphaScreen SureFire)
# Type: cell-based
# condition_parameters: phosphorylated Chk2 in NCI-H460 cells, ionizing radiation 8Gy, 1 hour after test compound treatment; read-out: ATM inhibitory activity
Attribute: IC50

Solved entries:
molecule: Cc1cccc(C(Nc2ccc3c(c2)Sc2cccc(-c4cc(N5CCOCC5)cc(=O)[nH]4)c2S3)C2CCN(C)C2)n1 (single isomer, unassigned) [Example 1-22-7]
observed_result: < 100 nM
--
molecule: CC(CN1CCNCC1)Nc1ccc2c(c1)Sc1cccc(-c3cc(N4CCOCC4)cc(=O)[nH]3)c1S2 (centres unmarked)
observed_result: 500 to 2000 nM
--
molecule: COc1ccnc(C(C)Nc2ccc3c(c2)Cc2cccc(-c4cc(N5CCOCC5)cc(=O)[nH]4)c2O3)c1 (single isomer, unassigned) [Example 2-14-86-2]
observed_result: < 100 nM

Now let's try a different one.
Asked: So what's the measured IC50 for this one? COCc1cncc(CNc2ccc3c(c2)Cc2cccc(-c4cc(N5CCOCC5)cc(=O)[nH]4)c2O3)c1
Given back: 100 to 500 nM
